# PROTOCOL NOTES: Phase I study: plasma pharmacokinetics of orally administered Compound 1
# Format: in vivo, human
# CONDITION SUMMARY: human, plasma, oral, 600 mg, 600 mg QD, Day 1, Mean
MEASUREMENT TYPE: half-life

Query (compound): Cc1cc2c(C(N)=O)cccc2n1-c1nc2c(c(NCc3ccccc3)n1)CCCN2 [Compound 1] ; field requested: half-life
5.94 h

###

# System: DoTc2 4510 (Uterus/Cervix)
# PROTOCOL NOTES: Cell Titer-Glo viability: single agent IC50 and Compound 1 + PARP inhibitor matrix (Bliss)
# Type: cell-based
# CONDITION SUMMARY: Homo sapiens, single agent, read-out: Absolute IC50
A collection of compounds and their measured IC50

* Cc1cc2c(C(N)=O)cccc2n1-c1nc2c(c(NCc3ccccc3)n1)CCCN2 | 513 nM

Query (compound): O=C(c1cc(Cc2n[nH]c(=O)c3ccccc23)ccc1F)N1CCN(C(=O)C2CC2)CC1 ; field requested: IC50
> 5000 nM
